Exercise: for every item that follows, state its recorded CC50 at 120 h.
test: Cytotoxicity against mock-infected human MT4 cells assessed as reduction in cell viability after 5 days by MTT assay; format: cell-based

{"columns": ["SMILES_NOTATION", "RESULT"],
 "data": [
  ["N#Cc1cc(Cl)cc(Oc2c(C(F)(F)F)ccn(CC(=O)Nc3ccn[nH]3)c2=O)c1", "≥ 41.9 µM"],
  ["N#Cc1cc(Cl)cc(Oc2c(C(F)(F)F)ccn(CC(=O)Nc3ccc([N+](=O)[O-])cc3)c2=O)c1", "> 254 µM"]
]}

If you can, please state the reported CC50 at 120 h value of N#Cc1cc(Cl)cc(Oc2c(C(F)(F)F)ccn(CC(=O)Nc3cnccn3)c2=O)c1 .
≥ 183 µM

# credit: ChEMBL document CHEMBL4330114
